// data source = the supplement of paper PMC12764529

Recorded folding stability dG unfold for the following sequences
test: folding stability dG unfold (combined trypsin and chymotrypsin); higher = more stable

Reported folding stability dG unfold for SAGGSMSIPLKTEEDVKKAVEYIKQKLLEEGAPEGLKIDKVEVTKLPDGTYKITITFPNKTFELVGSAGGSA [r2_120_JUSTAS] : what is it?
2.64 kcal/mol

Reported folding stability dG unfold for SLPPSLTYTLKLSHPDGSTVTATVFPGGSLRVTVYAPGGVKVAESEYPVDDLEALMKALGIKEVLSMELASA [r9_1107_JUSTAS] : what is it?
2.67 kcal/mol

Reported folding stability dG unfold for NKRIKIFIGGDDPSMAEQIQQWLQDNGYNVEVHVFTSPEDMKKAREWAEQNDIVIVIQVPPPPPKDPGDNNS [r1_497_TrROS] : what is it?
3.3 kcal/mol

Reported folding stability dG unfold for SAGMTINNTGSVEELKKLPDVVEIEKEGNKYTIKMPGETVEVELNPPKPVPKGPPYTSESEKKKKSEKSSAG [r5_2_JUSTAS] : what is it?
< -1 kcal/mol

Reported folding stability dG unfold for SAGGSAAEPVVLVFKTPESEALITVPPAFVQRVTVDPGGTVRRITVDLPDGTRTFLITDDSIFVDDSAGGSA [r15_598_TrMRF] : what is it?
0.709 kcal/mol

Reported folding stability dG unfold for SAMKIEIIEEKEGEIIIKIEATKEEVEELAEELKKKFPGVEVEVEYDKETKKVYIRIKFKKKPSEEELKSAG [r14_600_TrROS_Hall] : what is it?
3.82 kcal/mol

* * *

assay: folding stability dG unfold (combined trypsin and chymotrypsin); higher = more stable
Threshold rule: folding stability dG unfold greater than or equal to 3 kcal/mol is t; below that, f.

>>> print(df.to_string())
                              sequencechain  categorylabel
0  SAGGSAGGSAGGMPPFVELEFVGEFKVNGEKVLVLRLPDGSIRIVNLKTGETITVPASLLSAGGSAGGSAGG [r7_28_JUSTAS]              f
1  SAGGMTPEELREKAKKLAEELAKKLKEKYPNVKVEVEVDEETKKVKIKVKNKKTGKTYEITINLEELLSAGG [r13_354_TrROS_Hall]              t
2  SASMTLTIPLPLKPGDRVVVEATHPLGYGFETEELPDGSVRLTLTVPTPDAPPATLHIRVYEPNTGKLASAG [r14_39_TrMRF]              f
3  SMNVTEEVTVEELPSGEVLTETVVTEPSGVTTVTTTLASPPDRPVVETRTTTYPPDGSSTETSTVAPLPGSA [r9_1179_JUSTAS]              f
4  SAGGPVIEVEKEYIPETGLVKVKVRDPSSDRELEIIAPSDLVDKIEKALENAPGTNSEAAVREALRDSAGGS [r8_484_TrMRF]              f

In plain terms: is recorded folding stability dG unfold at least 3 kcal/mol for PINPEIAEKLKVAIANKLKEAGYKVKSVSISPLPDGTISGKVGDKTVTLPLPNGGTAGISVEAEKVSPEEAS [r1_31_TrMRF] ?
f

In plain terms: is recorded folding stability dG unfold at least 3 kcal/mol for SAGGSAGGSGEYVVVLLREELPDEERYLRRPVPLDAALEALKEGKLVRSSEGREWRFAEYRPESAGGSAGGS [r12_432_TrMRF] ?
f

In plain terms: is recorded folding stability dG unfold at least 3 kcal/mol for ITIRIPPNGNIRIEMIDPNGKWWTYTFPVKDPEENLQRLKDIIRDFFPGFEDVDVKITEVEDGWVTITVPLS [r1_389_TrROS] ?
t
